The values you see were collected from ChEMBL document CHEMBL3885861.

Species: Rattus norvegicus
Experiment: Open TG-GATES - Regimen: Daily Repeat
Assay type: toxicity, organism-based, Sprague-Dawley
Design: regimen Daily Repeat, gender Male, age 6 weeks
Details: in vivo, po, 100 mg/kg, […], tissue Plasma, route gavage, dose level Low, time 7 day

Molecule	A/G
CCOc1ccc(NC(=O)CC(C)O)cc1 (centres undefined) [BUCETIN]	0.8
NC(N)=Nc1nc(CSCCC(N)=NS(N)(=O)=O)cs1 [FAMOTIDINE]	1.5
CCOC(=O)CCC(=O)O[C@H]1[C@H](O[C@@H]2[C@@H](C)[C@H](O[C@H]3C[C@@](C)(OC)[C@@H](O)[C@H](C)O3)[C@@H](C)C(=O)O[C@H](CC)[C@@](C)(O)[C@H](O)[C@@H](C)C(=O)[C@H](C)C[C@@]2(C)O)O[C@H](C)C[C@@H]1N(C)C [ERYTHROMYCIN ETHYLSUCCINATE]	1.1
COC1=CC(=O)C[C@@H](C)[C@]12Oc1c(Cl)c(OC)cc(OC)c1C2=O [GRISEOFULVIN]	1.5
